assay: small-molecule microarray binders of probe aXIP, primary screen, biochemical, NeuroSMM set, 635/667 nm fluorescence (AID 1119); conditions: higher = more signal, called active from +8 up or from −8 down;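 note: probe is the protein aXip251-270 applied at 1 µg/mL to compound-printed slides; binding of probe to printed compounds measured as 667 nm fluorescence plus signal to noise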
Please use criterion met whenever composite Z-score is not below 0.1, and criterion not met whenever it is.

These solved cases illustrate the format of a correct answer.
COCCCNC(=O)[C@@]1(C)c2ccccc2C(=O)N(Cc2cc(F)cc(C(F)(F)F)c2)[C@H]1c1ccc(CO)cc1 ... criterion not met
COc1ccc([Si](C)(C)[C@H]2[C@H](CC(=O)N3Cc4ccccc4C[C@H]3CO)O[C@@]3(C(=O)N(Cc4cccc(N5C(=O)COc6ccccc65)c4)c4ccccc43)[C@@H]2C)cc1 ... criterion met
COc1ccc(C(=O)Nc2cccc(CN3C(=O)[C@@]4(O[C@@H](CCO)[C@H]([Si](C)(C)c5ccc(OC)cc5)[C@H]4C)c4ccccc43)c2)cc1 ... criterion not met

Q: Reported composite Z-score reaches at least 0.1 for [N-]=[N+]=NCc1ccccc1C[C@@]1(C(=O)NCc2ccccc2)N=C(c2ccc(OCCCO)cc2)O[C@@H]1c1ccccc1 ?
Ans: criterion met

Q: Reported composite Z-score reaches at least 0.1 for Cc1ccc(N2C(=O)c3ccccc3[C@](C)(C(=O)NC3CC3)[C@@H]2c2ccc(CO)cc2)nc1 ?
Ans: criterion met

Q: Reported composite Z-score reaches at least 0.1 for CC(C)C[C@@H]1NC(=O)[C@@H]2C[C@H](C(=O)NCCCCCNC(=O)CS)[C@H](c3cccc(OCCO)c3)N2C1=O ?
Ans: criterion met
